// provenance: PubChem BioAssay

Consider the following molecules; for each one, report its differentiation response.
- Protocol details: AML differentiation inducers, ER-HoxA9 marrow cells – cell-based, GFP/MAC1 double positive, flow cytometry, validation set, primary screen (AID 588685);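 further: compound exposure lasts four days before antibody staining and flow analysis; 0% = DMSO wells and 100% = 5 µM fulvestrant positive control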
- Conditions used: hits give high values, normalized: vehicle 0, fulvestrant 100
Give bare numbers, in %.

Molecule | differentiation response / %
COc1ccc(C2=C(CN(C)C)C(c3ccccc3)c3ccccc3O2)cc1 (stereo unspecified) | 0.24
COc1cc(COc2ccc3c(C)c(Cc4ccccc4)c(=O)oc3c2)cc(OC)c1OC | 3.18
COc1ccccc1N1CCN(CC(O)COc2cccc3ccccc23)CC1 (stereo unspecified) | 4.86

# map each molecule to its differentiation response
1. O=C(c1ccco1)N(CCC(c1ccccc1)c1ccco1)Cc1ccco1 (stereo unspecified)
2. OC(CCN1CCCC1)(c1ccccc1)C1CCCCC1 (stereo unspecified)
3. CN(C)c1ccc(CNCCC(Cc2ccccc2)c2ccco2)cc1 (stereo unspecified)

## Result
[-13.6, -4.91, -5.68]
